Cited source: patent US7632972B2

- Tested on: SNB-19
- METHOD_SUMMARY: NCI 60 cell line screen (SRB), CNS Cancer
- Assay type: cell-based, human
- CONDITION_LABEL: SNB-19; read-out: LC50 (the source's name)
MEASUREMENT_KIND: CC50

Consider the molecule `COc1cccc(CCNC(=O)CC(c2ccccc2)(c2ccccc2)c2ccccc2)c1` and give its measured CC50.
> 100 µM

###

- Test system: U251
- METHOD_SUMMARY: NCI 60 cell line screen (SRB), CNS Cancer
- Assay type: cell-based, human
- CONDITION_LABEL: U251; read-out: LC50 (the source's name)
MEASUREMENT_KIND: CC50

Requested read-out CC50, target or system U251, entry COc1cccc(CCNC(=O)CC(c2ccccc2)(c2ccccc2)c2ccccc2)c1 [Compound Z3]
> 100 µM

###

- Test system: SK-MEL-2
- METHOD_SUMMARY: NCI 60 cell line screen (SRB), Melanoma
- Type: cell-based, human
- CONDITION_LABEL: SK-MEL-2; read-out: LC50 (the source's name)
MEASUREMENT_KIND: CC50

Consider the compound COc1cccc(CCNC(=O)CC(c2ccccc2)(c2ccccc2)c2ccccc2)c1 [Compound Z3] and give its measured CC50.
> 100 µM

###

- Tested on: SK-MEL-28
- METHOD_SUMMARY: NCI 60 cell line screen (SRB), Melanoma
- Assay type: cell-based, human
- CONDITION_LABEL: SK-MEL-28; read-out: LC50 (the source's name)
MEASUREMENT_KIND: CC50

Requested read-out CC50, target or system SK-MEL-28, entry `COc1cccc(CCNC(=O)CC(c2ccccc2)(c2ccccc2)c2ccccc2)c1`
> 100 µM

###

- Tested on: KM12
- METHOD_SUMMARY: NCI 60 cell line screen (SRB), Colon Cancer
- Type: cell-based, human
- CONDITION_LABEL: KM12; read-out: LC50 (the source's name)
MEASUREMENT_KIND: CC50

Consider the compound `COc1cccc(CCNC(=O)CC(c2ccccc2)(c2ccccc2)c2ccccc2)c1` and give its measured CC50.
> 100 µM

###

- Test system: NCI-H522
- METHOD_SUMMARY: NCI 60 cell line screen (SRB), Non-Small Cell Lung Cancer
- Type: cell-based, human
- CONDITION_LABEL: NCI-H522; read-out: LC50 (the source's name)
MEASUREMENT_KIND: CC50

Consider the compound `COc1cccc(CCNC(=O)CC(c2ccccc2)(c2ccccc2)c2ccccc2)c1` and give its measured CC50.
> 100 µM

###

- System: HCT-15
- METHOD_SUMMARY: NCI 60 cell line screen (SRB), Colon Cancer
- Format: cell-based, human
- CONDITION_LABEL: HCT-15; read-out: LC50 (the source's name)
MEASUREMENT_KIND: CC50

Consider the molecule `COc1cccc(CCNC(=O)CC(c2ccccc2)(c2ccccc2)c2ccccc2)c1` and give its measured CC50.
> 100 µM

###

- System: UO-31
- METHOD_SUMMARY: NCI 60 cell line screen (SRB), Renal Cancer
- Type: cell-based, human
- CONDITION_LABEL: UO-31; read-out: LC50 (the source's name)
MEASUREMENT_KIND: CC50

Requested read-out CC50, target or system UO-31, entry `COc1cccc(CCNC(=O)CC(c2ccccc2)(c2ccccc2)c2ccccc2)c1`
> 100 µM

###

- Tested on: MDA-MB-231/ATCC
- METHOD_SUMMARY: NCI 60 cell line screen (SRB), Breast Cancer
- Type: cell-based, human
- CONDITION_LABEL: read-out: LC50 (the source's name)
MEASUREMENT_KIND: CC50

Consider the molecule `COc1cccc(CCNC(=O)CC(c2ccccc2)(c2ccccc2)c2ccccc2)c1` and give its measured CC50.
> 100 µM

###

- Test system: NCI/ADR-RES
- METHOD_SUMMARY: NCI 60 cell line screen (SRB), Breast Cancer
- Type: cell-based, human
- CONDITION_LABEL: read-out: LC50 (the source's name)
MEASUREMENT_KIND: CC50

Consider the compound `COc1cccc(CCNC(=O)CC(c2ccccc2)(c2ccccc2)c2ccccc2)c1` and give its measured CC50.
> 100 µM

###

- System: BT-549
- METHOD_SUMMARY: NCI 60 cell line screen (SRB), Breast Cancer
- Format: cell-based, human
- CONDITION_LABEL: BT-549; read-out: LC50 (the source's name)
- Method: The operation of this screen utilizes 60 different human tumor cell lines, representing leukemia, melanoma and cancers of the lung, colon, brain, ovary, breast, prostate, and kidney. […] Following drug addition, the plates are incubated for an additional 48 h at 37° C., 5% CO2, 95% air, and 100% relative humidity. […] Bound stain is subsequently solubilized with 10 mM trizma base, and the absorbance is read on an automated plate reader at a wavelength of 515 nm. […]
MEASUREMENT_KIND: CC50

Consider the compound `COc1cccc(CCNC(=O)CC(c2ccccc2)(c2ccccc2)c2ccccc2)c1` and give its measured CC50.
> 100 µM

###

- Tested on: ACHN
- METHOD_SUMMARY: NCI 60 cell line screen (SRB), Renal Cancer
- Type: cell-based, human
- CONDITION_LABEL: read-out: LC50 (the source's name)
MEASUREMENT_KIND: CC50

Consider the molecule `COc1cccc(CCNC(=O)CC(c2ccccc2)(c2ccccc2)c2ccccc2)c1` and give its measured CC50.
> 100 µM

###

- Tested on: CCRF-CEM
- METHOD_SUMMARY: NCI 60 cell line screen (SRB), Leukemia
- Type: cell-based, human
- CONDITION_LABEL: read-out: LC50 (the source's name)
MEASUREMENT_KIND: CC50

Consider the compound `COc1cccc(CCNC(=O)CC(c2ccccc2)(c2ccccc2)c2ccccc2)c1` and give its measured CC50.
> 100 µM

###

- Tested on: IGROV1
- METHOD_SUMMARY: NCI 60 cell line screen (SRB), Ovarian Cancer
- Assay type: cell-based, human
- CONDITION_LABEL: IGROV1; read-out: LC50 (the source's name)
MEASUREMENT_KIND: CC50

Consider the compound `COc1cccc(CCNC(=O)CC(c2ccccc2)(c2ccccc2)c2ccccc2)c1` and give its measured CC50.
> 100 µM

###

- System: HL-60(TB)
- CONDITION_LABEL: read-out: LC50
MEASUREMENT_KIND: CC50

Requested read-out CC50, target or system HL-60(TB), entry COc1cccc(CCNC(=O)CC(c2ccccc2)(c2ccccc2)c2ccccc2)c1 [Compound Z3]
> 100 µM

###

- System: SN12C
- METHOD_SUMMARY: NCI 60 cell line screen (SRB), Renal Cancer
- Format: cell-based, human
- CONDITION_LABEL: read-out: LC50 (the source's name)
MEASUREMENT_KIND: CC50

Requested read-out CC50, target or system SN12C, entry COc1cccc(CCNC(=O)CC(c2ccccc2)(c2ccccc2)c2ccccc2)c1 [Compound Z3]
> 100 µM

###

- METHOD_SUMMARY: in vitro
- Type: cell-based, human
- CONDITION_LABEL: human
MEASUREMENT_KIND: IC50 at 72 h (µM)
All answers are understood in µM, so give the number only.

COc1cc(/C=C/C(=O)NC[C@@H](OC)c2ccc(O)cc2)ccc1O ... 273
COc1cc(/C=C/C(=O)NC[C@@H](O)c2ccccc2)ccc1O (stereo in doubt) ... 61
COc1cc(/C=C/C(=O)NC[C@H](O)c2ccc(O)cc2)ccc1O ... 109

Consider the molecule `COc1cc(/C=C/C(=O)NC[C@@H](O)c2ccc(O)cc2)ccc1O` and give its measured IC50 at 72 h.
44

###

- System: HCT-116
- METHOD_SUMMARY: NCI 60 cell line screen (SRB), Colon Cancer
- Assay type: cell-based, human
- CONDITION_LABEL: HCT-116; read-out: LC50 (the source's name)
- Procedure: The operation of this screen utilizes 60 different human tumor cell lines, representing leukemia, melanoma and cancers of the lung, colon, brain, ovary, breast, prostate, and kidney. […] Following drug addition, the plates are incubated for an additional 48 h at 37° C., 5% CO2, 95% air, and 100% relative humidity. […] Bound stain is subsequently solubilized with 10 mM trizma base, and the absorbance is read on an automated plate reader at a wavelength of 515 nm. […]
MEASUREMENT_KIND: CC50

Consider the compound `COc1cccc(CCNC(=O)CC(c2ccccc2)(c2ccccc2)c2ccccc2)c1` and give its measured CC50.
> 100 µM

###

- Test system: UACC-62
- METHOD_SUMMARY: NCI 60 cell line screen (SRB), Melanoma
- Assay type: cell-based, human
- CONDITION_LABEL: UACC-62; read-out: LC50 (the source's name)
MEASUREMENT_KIND: CC50

Consider the compound `COc1cccc(CCNC(=O)CC(c2ccccc2)(c2ccccc2)c2ccccc2)c1` and give its measured CC50.
> 100 µM
